B1: CPEB3 Ribozyme (parent)
chain: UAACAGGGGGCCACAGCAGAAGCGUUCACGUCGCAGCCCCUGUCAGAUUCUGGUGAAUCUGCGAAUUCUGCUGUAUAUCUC

Variants of: B1
assay.name: self-cleavage, relative activity (ratio to wild type); higher = more cleavage; in vitro, sequencing
measured.endpoint: self-cleavage
Answer with a number only.

[
  {
    "mutant.code": "A21G G42U",
    "self-cleavage": 0.37
  },
  {
    "mutant.code": "U25G U31C",
    "self-cleavage": 0.19
  },
  {
    "mutant.code": "U26C U78C",
    "self-cleavage": 0.42
  },
  {
    "mutant.code": "G42A U72C",
    "self-cleavage": 0.37
  },
  {
    "mutant.code": "U26A U49C",
    "self-cleavage": 0.3
  },
  {
    "mutant.code": "A56G U60A",
    "self-cleavage": 0.41
  }
]

Ask: Query: self-cleavage; subject: C11U A15U
Reply: 0.35

Ask: Query: self-cleavage; subject: A18G C62U
Reply: 0.32

Ask: Query: self-cleavage; subject: A15U U66A
Reply: 0.34

Ask: Query: self-cleavage; subject: G42U U43A
Reply: 0.54

Ask: Query: self-cleavage; subject: G19A A56U
Reply: 0.12
